Measured values drawn from ChEMBL document CHEMBL2311502 for this set.

SYSTEM UNDER TEST: Glycylpeptide N-tetradecanoyltransferase 1 (Homo sapiens) (UniProt P30419)
Sequence (P30419 whole entry, looked up): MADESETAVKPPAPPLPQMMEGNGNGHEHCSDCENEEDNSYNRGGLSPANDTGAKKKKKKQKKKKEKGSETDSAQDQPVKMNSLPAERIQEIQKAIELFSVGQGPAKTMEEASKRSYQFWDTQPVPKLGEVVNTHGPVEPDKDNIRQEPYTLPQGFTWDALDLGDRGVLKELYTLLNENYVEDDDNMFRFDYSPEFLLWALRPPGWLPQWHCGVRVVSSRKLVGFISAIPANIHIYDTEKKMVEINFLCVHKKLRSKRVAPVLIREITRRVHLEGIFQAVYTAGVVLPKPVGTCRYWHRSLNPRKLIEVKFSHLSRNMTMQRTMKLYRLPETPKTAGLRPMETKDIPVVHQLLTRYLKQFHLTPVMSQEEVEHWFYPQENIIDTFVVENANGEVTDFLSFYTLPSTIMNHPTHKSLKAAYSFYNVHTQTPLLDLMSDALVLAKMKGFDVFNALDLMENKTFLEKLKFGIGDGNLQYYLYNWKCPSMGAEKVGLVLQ
ASSAY OVERVIEW: Inhibition of human NMT1
Activity calls are given as the source filed them. The calls are words filed in the database; no cut-off is given here.
Hi! Could you answer with just one of these? T (active), F (inactive)

For orientation, consider the following solved cases.
# SAMPLE SMILES, ASSIGNED LABEL
data = [
    ("CCOC(=O)c1oc2ccccc2c1OC1CCNCC1", "F"),
    ("O=C(OCc1ccccc1)c1sc2ccccc2c1OC1CCNCC1", "T"),
    ("CCOC(=O)c1sc2ccccc2c1OC1CCNCC1", "F"),
]

Look up the recorded call for CCOC(=O)c1oc2cccc(OC3CCNCC3)c2c1C in this test.
F

Likewise for O=C(NCc1ccccc1)c1sc2ccccc2c1OC1CCNCC1 ?
T

Also check COc1cccc(CNC(=O)c2sc3ccccc3c2OC2CCNCC2)c1
F

Now try COc1cccc(COC(=O)c2sc3ccccc3c2OC2CCNCC2)c1 .
T

---

SYSTEM UNDER TEST: Glycylpeptide N-tetradecanoyltransferase 1 (Homo sapiens)
Sequence (P30419 whole entry): as the sequence (P30419 whole entry, looked up) above
ASSAY OVERVIEW: Binding affinity to human NMT1 after 10 to 20 mins by CPM fluorescence assay
pKi: −log10 of the molar value.
Each entry below carries its reported pKi.

Known pKi results, listed for orientation:
# SAMPLE SMILES, pKi
data = [
    ("CCOC(=O)c1oc2ccccc2c1OC1CCNCC1", "< 4.00"),
    ("CCOC(=O)c1sc2ccccc2c1OC1CCNCC1", "< 4.00"),
]

Next molecule, pKi to be filled in.
What does the data say about its pKi? Entry: O=C(OCc1ccccc1)c1sc2ccccc2c1OC1CCNCC1
5.36

---

Tested on: Plasmodium falciparum
ASSAY OVERVIEW: Antiplasmodium activity against Chloroquine-sensitive later trophozoite form of Plasmodium falciparum 3D7 assessed as parasite growth inhibition after 48 hrs by FACS flow cytometric analysis
Assay type: functional, organism-based
CONDITION SUMMARY: 3D7, 48 h
PROPERTY LABEL: EC50 (µM)
Give the value in µM but do not write µM after it.

# SAMPLE SMILES, SYSTEM UNDER TEST, PROPERTY LABEL, MEASURE UNIT, ASSAY RESULT
records = [
    ("O=C(NCc1ccccc1)c1sc2ccccc2c1OC1CCNCC1", "Plasmodium falciparum", "EC50", "µM", 8.1),
    ("CCOC(=O)c1oc2ccccc2c1OC1CCNCC1", "Plasmodium falciparum", "EC50", "µM", 61.4),
    ("COc1cccc(COC(=O)c2sc3ccccc3c2OC2CCNCC2)c1", "Plasmodium falciparum", "EC50", "µM", 2),
    ("CCOC(=O)c1sc2ccccc2c1OC1CCNCC1", "Plasmodium falciparum", "EC50", "µM", 14.6),
]

# context switch: different molecule, same EC50
Request: EC50, test system Plasmodium falciparum, entry O=C(OCc1ccccc1)c1sc2ccccc2c1OC1CCNCC1
4.2

---

SYSTEM UNDER TEST: Glycylpeptide N-tetradecanoyltransferase (Plasmodium falciparum (isolate 3D7), UniProt Q8ILW6)
Sequence (Q8ILW6 whole entry): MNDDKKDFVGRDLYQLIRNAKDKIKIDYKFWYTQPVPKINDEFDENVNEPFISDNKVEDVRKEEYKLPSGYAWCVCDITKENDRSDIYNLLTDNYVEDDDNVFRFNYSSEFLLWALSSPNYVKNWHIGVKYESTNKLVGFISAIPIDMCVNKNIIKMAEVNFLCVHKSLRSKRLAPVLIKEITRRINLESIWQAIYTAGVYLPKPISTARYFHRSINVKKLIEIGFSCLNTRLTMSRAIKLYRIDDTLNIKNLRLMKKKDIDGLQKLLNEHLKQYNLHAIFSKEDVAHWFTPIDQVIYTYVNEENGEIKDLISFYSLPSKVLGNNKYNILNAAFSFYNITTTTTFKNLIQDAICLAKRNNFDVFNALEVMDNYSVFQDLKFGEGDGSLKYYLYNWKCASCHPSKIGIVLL
ASSAY OVERVIEW: Binding affinity to Plasmodium falciparum NMT using GSNKSKPKDASQRRR-NH2 as substrate after 10 to 20 mins by CPM fluorescence assay
PROPERTY LABEL: Ki (µM)

# SAMPLE SMILES, MEASURE UNIT, Ki
measured = [
    ("CCOC(=O)c1oc2cccc(OC3CCNCC3)c2c1C", "µM", 13.6),
    ("O=C(NCc1ccccc1)c1sc2ccccc2c1OC1CCNCC1", "µM", 10.7),
    ("COc1cccc(COC(=O)c2sc3ccccc3c2OC2CCNCC2)c1", "µM", 0.83),
    ("CCOC(=O)c1oc2ccccc2c1OC1CCNCC1", "µM", 4.47),
]

[P] CCOC(=O)c1sc2ccccc2c1OC1CCNCC1
[Q] O=C(OCc1ccccc1)c1sc2ccccc2c1OC1CCNCC1
// which entry reports the smaller Ki, P or Q ? Field: selected label. Fill in the label of the entry you choose.
P
(P: 1.3 µM, Q: 3.37 µM)
